The entries below come with measured log10 of ED50 values attached.
- Tested on: Mus musculus
- test_method_notes: Compound was evaluated in vivo for its effective dose at which half of the mice were effected using hotplate assay (HPA) by administering the compound perorally (po)
- Format: functional
measured_endpoint: log10 of ED50 (log10 of the value in µmol/kg)

- smiles_str: "COc1ccc2c(c1OC)[C@]13CCN(C)[C@H](C2)[C@]1(OC)CCC(=O)C3"
  reported: -0.52
- smiles_str: "COc1cccc2c1[C@]13CCN(C)[C@H](C2)[C@]1(OC)CCC(=O)C3"
  reported: 0.04
- smiles_str: "CO[C@@]12CCC(=O)C[C@@]13CCN(C)[C@@H]2Cc1ccccc13"
  reported: 0.34
- smiles_str: "CN1CC[C@]23CC(=O)CC[C@@]2(O)[C@H]1Cc1cccc(O)c13"
  reported: 0.54
- smiles_str: "CO[C@@]12CCC(=O)C[C@@]13CCN(C)[C@@H]2Cc1cccc(O)c13"
  reported: 0.08
- smiles_str: "COc1ccc2c(c1O)[C@]13CCN(C)[C@H](C2)[C@]1(OC)CCC(=O)C3"
  reported: 0.38
- smiles_str: "COc1cccc2c1[C@]13CCN(C)[C@H](C2)[C@]1(O)CCC(=O)C3"
  reported: 0.70
